Target: HIV-1 nucleocapsid protein NC (wild type) (HIV-1 pNL4-3, UniProt P12493 378-432)
Assay: tryptophan fluorescence quenching
experimental-endpoint: Kd (nM)
Please reply with the bare figure in nM and do not write the unit itself.

*Q* Entry TGTGTGTG (ssDNA) [(TG)4] has what Kd?
*A* 3.4
